EXPERIMENT_DESCRIPTION: Metabolic stability assay, CD-1 mouse microsomes
Assay type: in vitro ADME
CONDITION_DETAILS: CD-1 mouse microsomes, 60 min, 10 μM, 37° C.
READOUT: Metabolic Stability 60 min mouse/(rat) [% remain.]

GIVEN_SMILES	REPORTED_RESULT
C[C@H]1COc2cccc(c2)-c2cccc(c2)C(=O)N(C)[C@H](C(=O)N2CCC2)CCC(=O)N1	71 % remain.
COc1ccc2c(c1)-c1cccc(c1)C(=O)N(C)[C@H](C(=O)N1CCCC1)CCC(=O)N[C@H](C)CO2	71 % remain.
COCCNC(=O)[C@@H]1CCC(=O)N[C@H](C)COc2ccc(OC)cc2-c2cccc(c2)C(=O)N1C	69 % remain.
COc1ccc2c(c1)-c1cccc(c1)C(=O)N(C)[C@H](C(=O)N[C@@H](C)c1ccccc1)CCC(=O)N[C@H](C)CO2	70 % remain.
